Please provide measured mass density for the entries that follow.
- condition_summary: 327.4 K; 101.33 kPa; Liquid; Vibrating tube method
Give bare numbers, in kg/m3.

Data request: Please give the documented mass density of CCCCC(=O)[O-].C[NH2+]CCO [2-hydroxy-N-methylethanaminium pentanoate]
Data returned: 996.278

Data request: Please give the documented mass density of CC(C)C(=O)[O-].C[NH2+]CCO [2-hydroxy-N-methylethanaminium isobutyrate]
Data returned: 1024.18

Go through the list and state mass density for each entry.
1. CCCC(=O)[O-].C[NH2+]CCO [N-methyl-2-hydroxyethylammonium butanoate]
2. CCC(=O)[O-].C[NH2+]CCO [2-hydroxy-N-methylethanaminium propionate]
3. C[NH2+]CCO.O=C[O-] [2-hydroxy-N-methylethanaminium formate]

Data returned:
[1019.29, 1051.94, 1112.01]

Data request: Please give the documented mass density of CC(=O)[O-].C[NH2+]CCO [N-methyl-2-hydroxyethylammonium acetate]
Data returned: 1082.97
